# Lookup of reported ELISA_avg keyed by entry
# target-under-test: T1, recombinant human CD123-Fc (human, UniProt P26951 19-305)
# T1 construct: not shown: Fc part of CD123-Fc
# T1 sequence: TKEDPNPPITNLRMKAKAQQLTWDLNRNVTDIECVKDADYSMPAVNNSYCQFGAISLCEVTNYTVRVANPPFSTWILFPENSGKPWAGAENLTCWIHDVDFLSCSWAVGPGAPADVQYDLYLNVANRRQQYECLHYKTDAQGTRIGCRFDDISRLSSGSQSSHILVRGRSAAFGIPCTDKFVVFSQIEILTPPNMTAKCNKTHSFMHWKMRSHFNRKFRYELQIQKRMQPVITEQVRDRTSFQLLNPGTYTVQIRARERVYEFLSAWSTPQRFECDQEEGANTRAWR
# test-name: phage ELISA, captured CD123-Fc

- binder: "SEQ ID NO: 616 (designed binder, D domain, on phage) MGSWWEFKYRLDAICFRLAALGGSEAELASFEDEIAYFEEDLQGYKGKGNPEVEALDYEALAIWDELAAYRHN"
  measurement-units: "ratio A450 target/IgG1-Fc"
  ELISA_avg: 3.1
- binder: "SEQ ID NO: 594 (designed binder, D domain, on phage) MGSWVEFDSRLAAIDYRLEALGGSEAELAWFEYTIANFEHTLQMYKGKGNPEVEALVYEAHAIATELQAYRHN"
  measurement-units: "ratio A450 target/IgG1-Fc"
  ELISA_avg: 3.4
- binder: "SEQ ID NO: 626 (designed binder, D domain, on phage) MGSWYEFENRLFAIEERLWALGGSEAELAWFEYEIANFEWGLQSYKGKGNPEVEALDNEAEAIDIELAAYRHN"
  measurement-units: "ratio A450 target/IgG1-Fc"
  ELISA_avg: 3.3
- binder: "SEQ ID NO: 467 (designed binder, D domain, on phage) MGSWEFFKEVLAEIKYDLEALGGSEAELAWFETDIAGFEIDLQVYKGKGNPEVEALRKEAAAIRDELQAYRHN"
  measurement-units: "ratio A450 target/IgG1-Fc"
  ELISA_avg: 8.2
- binder: "SEQ ID NO: 527 (designed binder, D domain, on phage) MGSWVVFKQDLADINHQLEALGGSEAELAWFEWEIADFEWELQHYKGKGNPEVEALRKEAAAIRDELQAYRHN"
  measurement-units: "ratio A450 target/IgG1-Fc"
  ELISA_avg: 3.6
